// reported T/C for each item listed
# Tested on: L1210 leukemia ip in BDF1 mice, survival T/C
# run-description: NCI In Vivo Anticancer Drug Screen. Data for tumor model L1210 Leukemia (intraperitoneal) in B6D2F1 (BDF1) mice
# study-conditions: endpoint: mean survival time; dose: 400.0 mg/kg/injection; schedule: Q01DX001 (ip); vehicle: Klucel (hydroxypropylcellulose) (HPC); higher = longer survival
Toxic doses and inconclusive results are not listed.

CCOc1ccc(-n2c(=O)c(N=Nc3ccc(Cl)cc3)c(O)n(-c3ccc(C)cc3)c2=S)cc1 ... 100 % of control

The compound listed as CC(C)NC(C)C shows T/C equal to 107 % of control

The compound listed as O=C(O)C(CSCc1ccccc1)NSc1ccccc1[N+](=O)[O-] (stereo unspecified) shows T/C equal to 101 % of control

The compound listed as Cc1ccc(N)cc1[N+](=O)[O-] shows T/C equal to 95 % of control

The compound listed as O=C(C(CO)C(CO)C(=O)N1Cc2cc3ccccc3nc2C1)N1Cc2cc3ccccc3nc2C1 (stereo unspecified) shows T/C equal to 92 % of control

The compound listed as Cc1cc(C)c(N(CC(=O)O)S(=O)(=O)c2ccccc2)c(Sc2ccccc2)c1 shows T/C equal to 100 % of control
